Cited source for all entries: patent EP4471048A1

# IC50 measurements, system: human IL-23R (Homo sapiens)
Where a SMILES comes first, the peptide text is derived from it. Bridges are numbered along the chain shown (N, C = ends). [ ]: non-standard residue; d: D form. 2Nal = N[C@@H](Cc1ccc2ccccc2c1)C(=O)O; AEF = NCCOc1ccc(C[C@H](N)C(=O)O)cc1; 3Pal = N[C@@H](Cc1cccnc1)C(=O)O; Aad = N[C@@H](CCCC(=O)O)C(=O)O; αMeL = CC(C)C[C@](C)(N)C(=O)O; dOrn = NCCC[C@@H](N)C(=O)O; Dab = NCC[C@H](N)C(=O)O
Numbers only; they are read as nM.

See these solved cases before continuing.
molecule="CC(C)C[C@]1(C)NC(=O)[C@H](Cc2ccc3ccccc3c2)NC(=O)[C@H](Cc2ccc(OCCN)cc2)NC(=O)[C@@H]2CC(=O)N[C@H](CCCNC(=O)CCC[C@@H](C(=O)N[C@@H](CCN)C(=O)N[C@@H](Cc3cccnc3)C(N)=O)NC1=O)C(=O)N[C@@H]([C@@H](C)O)C(=O)N[C@@H](C(C)C)C(=O)N[C@@H](Cc1c[nH]c3ccccc13)C(=O)N[C@@H](CCC(N)=O)C(=O)N2 [Compound 8] ([dOrn]TVWQD[AEF][2Nal][αMeL][Aad][Dab][3Pal]-NH2; lactam 1-10, N-6)" recorded_metric=IC50 measured_result=0.52
molecule=CC[C@H](C)[C@@H]1NC(=O)[C@@H]2CCCCNC(=O)CC[C@@H](C(=O)NCC(=O)N[C@H](Cc3cccnc3)C(N)=O)NC(=O)[C@](C)(C(C)C)NC(=O)[C@H](Cc3ccc4ccccc4c3)NC(=O)[C@H](Cc3ccc(C)cc3)NC(=O)[C@H](CCC(=O)N2)NC(=O)[C@H](CCC(N)=O)NC(=O)[C@H](Cc2c[nH]c3ccccc23)NC(=O)[C@H](C(C)C)NC1=O recorded_metric=IC50 measured_result=37
molecule="CC(C)C[C@]1(C)NC(=O)[C@H](Cc2ccc3ccccc3c2)NC(=O)[C@H](Cc2ccc(OCCN)cc2)NC(=O)[C@@H]2CSCC(=O)CSC[C@H](NC(=O)[C@H](CO)NC(=O)Cc3ccc(cc3)CNC(=O)CC[C@@H](C(=O)N[C@@H](CO)C(N)=O)NC1=O)C(=O)N[C@@H](Cc1c[nH]c3ccccc13)C(=O)N[C@@H](CCC(N)=O)C(=O)N2 [Ref 81, reference compound]" recorded_metric=IC50 measured_result=0.39
molecule=CC[C@H](C)[C@@H]1NC(=O)[C@@H]2CCCCNC(=O)CC[C@@H](C(=O)NCCCCC(=O)N[C@@H](Cc3cccnc3)C(=O)NC)NC(=O)[C@](C)(CC(C)C)NC(=O)[C@H](Cc3ccc4ccccc4c3)NC(=O)[C@H](Cc3ccc(OCCN)cc3)NC(=O)[C@H](CCC(=O)N2)NC(=O)[C@H](CCC(N)=O)NC(=O)[C@H](Cc2c[nH]c3ccccc23)NC(=O)[C@H](C(C)C)NC1=O recorded_metric=IC50 measured_result=11

// next item, IC50 requested
Exercise: Request - read-out IC50 | tested on human IL-23R (Homo sapiens) | molecule CNC(=O)[C@H](Cc1cccnc1)NC(=O)[C@H](Cc1ccncc1)NC(=O)[C@@H]1CCC(=O)NCCCC[C@@H]2NC(=O)CC[C@H](NC(=O)[C@H](CCC(N)=O)NC(=O)[C@H](Cc3c[nH]c4ccccc34)NC(=O)CCNC2=O)C(=O)N[C@@H](Cc2ccc(OCCN)cc2)C(=O)N[C@@H](Cc2ccc3ccccc3c2)C(=O)N[C@@](C)(CC(C)C)C(=O)N1
Key: 0.04

###

Molecular target: human IL-23R (Homo sapiens, UniProt Q5VWK5)
Sequence (Q5VWK5 22-629): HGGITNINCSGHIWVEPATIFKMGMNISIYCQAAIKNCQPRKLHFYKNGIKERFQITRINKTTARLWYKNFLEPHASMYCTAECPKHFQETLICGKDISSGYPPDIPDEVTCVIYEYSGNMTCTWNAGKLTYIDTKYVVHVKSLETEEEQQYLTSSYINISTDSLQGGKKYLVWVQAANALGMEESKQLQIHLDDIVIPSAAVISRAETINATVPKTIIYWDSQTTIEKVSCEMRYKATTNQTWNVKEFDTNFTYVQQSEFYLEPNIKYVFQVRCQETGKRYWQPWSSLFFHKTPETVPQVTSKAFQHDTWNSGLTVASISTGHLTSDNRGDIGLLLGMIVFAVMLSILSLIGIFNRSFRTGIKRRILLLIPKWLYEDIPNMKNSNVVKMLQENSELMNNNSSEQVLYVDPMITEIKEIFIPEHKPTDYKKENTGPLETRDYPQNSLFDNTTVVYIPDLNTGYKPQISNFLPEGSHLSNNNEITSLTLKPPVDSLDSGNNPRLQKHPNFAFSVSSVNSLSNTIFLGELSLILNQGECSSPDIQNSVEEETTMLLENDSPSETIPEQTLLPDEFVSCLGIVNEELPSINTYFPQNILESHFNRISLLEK
Where a SMILES comes first, the peptide text is derived from it. Bridges are numbered along the chain shown (N, C = ends). [ ]: non-standard residue; d: D form. 2Nal = N[C@@H](Cc1ccc2ccccc2c1)C(=O)O; AEF = NCCOc1ccc(C[C@H](N)C(=O)O)cc1; 3Pal = N[C@@H](Cc1cccnc1)C(=O)O; αMeL = CC(C)C[C@](C)(N)C(=O)O; Dab = NCC[C@H](N)C(=O)O
recorded.metric: pIC50
Please express pIC50 as -log10 of the molar concentration.

Would you please look over these solved cases?
molecule="CC[C@H](C)[C@@H]1NC(=O)[C@@H]2CCCCNC(=O)CC[C@@H](C(=O)NC3(C(=O)N[C@@H](Cc4cccnc4)C(=O)NC)CCNCC3)NC(=O)[C@](C)(CC(C)C)NC(=O)[C@H](Cc3ccc4ccccc4c3)NC(=O)[C@H](Cc3ccc(OCCN)cc3)NC(=O)[C@H](CCC(=O)N2)NC(=O)[C@H](CCC(N)=O)NC(=O)[C@H](Cc2c[nH]c3ccccc23)NC(=O)[C@H](C(C)C)NC1=O [Compound 62]" subject_of_test="human IL-23R (Homo sapiens, UniProt Q5VWK5)" measured_result=10.14
molecule="CNC(=O)[C@H](Cc1cccnc1)NC(=O)[C@H](CCN)NC(=O)[C@@H]1CCC(=O)N[C@H]2CCCCNC(=O)CC[C@H](NC(=O)[C@H](CCC(N)=O)NC(=O)[C@H](Cc3c[nH]c4ccccc34)NC2=O)C(=O)N[C@@H](Cc2ccc(OCCN)cc2)C(=O)N[C@@H](Cc2ccc3ccccc3c2)C(=O)N[C@@](C)(CC(C)C)C(=O)N1 [Compound 102] (KWQE[AEF][2Nal][αMeL]E[Dab][3Pal]-NHMe; lactam 1-4, N-8)" subject_of_test="human IL-23R (Homo sapiens, UniProt Q5VWK5)" measured_result=8.35

Okay, next one:
Exercise: Quick one: pIC50 of CC[C@H](C)[C@@H]1NC(=O)[C@@H]2CCCCNC(=O)CC[C@@H](C(=O)N[C@H](Cc3cnc[nH]3)C(=O)N[C@@H](Cc3cccnc3)C(=O)NC)NC(=O)[C@](C)(CC(C)C)NC(=O)[C@H](Cc3ccc4ccccc4c3)NC(=O)[C@H](Cc3ccc(OCCN)cc3)NC(=O)[C@H](CCC(=O)N2)NC(=O)[C@H](CCC(N)=O)NC(=O)[C@H](Cc2c[nH]c3ccccc23)NC(=O)[C@H](C(C)C)NC1=O [Compound 70] ?
Key: 9.39

###

Readings of remaining at 1 h, 10 µM for the listed compounds
Assay: Peptide stability in simulated gastric fluid (SGF)
Type: in vitro ADME
Conditions: pig, simulated gastric fluid (SGF) with porcine pepsin (3.2 g/L), pH 1.2, 10 µM, 37 °C, porcine pepsin, pH 1.2, 1 h; read-out: SGF (% remaining 1 h)
Numeric only. Scale: %

Please review the following examples before continuing.
molecule_smiles=CC[C@H](C)[C@@H]1NC(=O)[C@@H]2CCCCNC(=O)CC[C@@H](C(=O)NCCCCC(=O)N[C@@H](Cc3cccnc3)C(=O)NC)NC(=O)[C@](C)(CC(C)C)NC(=O)[C@H](Cc3ccc4ccccc4c3)NC(=O)[C@H](Cc3ccc(OCCN)cc3)NC(=O)[C@H](CCC(=O)N2)NC(=O)[C@H](CCC(N)=O)NC(=O)[C@H](Cc2c[nH]c3ccccc23)NC(=O)[C@H](C(C)C)NC1=O recorded_metric="remaining at 1 h, 10 µM" endpoint_unit=% measured_result=102
molecule_smiles=COc1ccc(C[C@@H]2NC(=O)[C@@H]3CCC(=O)N[C@@H](CCCCNC(=O)CC[C@@H](C(=O)N[C@@H](CCCCNC(=O)c4cccnc4)C(N)=O)NC(=O)[C@](C)(CC(C)C)NC(=O)[C@H](Cc4ccc5ccccc5c4)NC2=O)C(=O)N[C@@H]([C@@H](C)O)C(=O)N[C@@H](C(C)C)C(=O)N[C@@H](Cc2c[nH]c4ccccc24)C(=O)N[C@@H](CCC(N)=O)C(=O)N3)cc1 recorded_metric="remaining at 1 h, 10 µM" endpoint_unit=% measured_result=78
molecule_smiles=CNC(=O)[C@H](Cc1cccnc1)NC(=O)[C@H](CCN)NC(=O)[C@@H]1CCC(=O)NCCCC[C@@H]2NC(=O)CC[C@H](NC(=O)[C@H](CCC(N)=O)NC(=O)[C@H](Cc3c[nH]c4ccccc34)NC(=O)CCCNC2=O)C(=O)N[C@@H](Cc2ccc(OCCN)cc2)C(=O)N[C@@H](Cc2ccc3ccccc3c2)C(=O)N[C@@](C)(CC(C)C)C(=O)N1 recorded_metric="remaining at 1 h, 10 µM" endpoint_unit=% measured_result=101
molecule_smiles=CNC(=O)[C@H](Cc1cccnc1)NC(=O)[C@H](CCN)NC(=O)[C@@H]1CCC(=O)NCCCC[C@@H]2NC(=O)CC[C@H](NC(=O)[C@H](CCC(N)=O)NC(=O)[C@H](Cc3c[nH]c4ccccc34)NC(=O)CCNC2=O)C(=O)N[C@@H](Cc2ccccn2)C(=O)N[C@@H](Cc2ccc3ccccc3c2)C(=O)N[C@@](C)(CC(C)C)C(=O)N1 recorded_metric="remaining at 1 h, 10 µM" endpoint_unit=% measured_result=107
molecule_smiles=CNC(=O)[C@H](Cc1cccnc1)NC(=O)[C@H](Cc1cnc[nH]1)NC(=O)[C@@H]1CCC(=O)NCCCC[C@@H]2NC(=O)CC[C@H](NC(=O)[C@H](CCC(N)=O)NC(=O)[C@H](Cc3c[nH]c4ccccc34)NC(=O)CCNC2=O)C(=O)N[C@@H](Cc2ccc(OCCN)cc2)C(=O)N[C@@H](Cc2ccc3ccccc3c2)C(=O)N[C@@](C)(CC(C)C)C(=O)N1 recorded_metric="remaining at 1 h, 10 µM" endpoint_unit=% measured_result=94

Turning now to a further record.
Exercise: Bench note: what remaining at 1 h, 10 µM did CNC(=O)[C@H](Cc1cccnc1)NC(=O)[C@H](CCN)NC(=O)[C@@H]1CCC(=O)NCCCC[C@@H]2NC(=O)CC[C@H](NC(=O)[C@H](CCC(N)=O)NC(=O)[C@H](Cc3c[nH]c4ccccc34)NC(=O)CCNC2=O)C(=O)N[C@@H](Cc2cccnc2)C(=O)N[C@@H](Cc2ccc3ccccc3c2)C(=O)N[C@@](C)(CC(C)C)C(=O)N1 show?
Key: 106
